# assay: ATG_RORE_CIS: Attagene CIS-FACTORIAL HepG2 Assay for human RAR-related Orphan Receptor Element (RORE) (AID 2282959)
# run_parameters: HepG2 Attagene cis-factorial RORE reporter, mRNA; actives raise or lower the signal
Activity calls are given as the source filed them. How the source made its calls: active means hit-call score of the fitted dose curve at least 0.9, where 1 is the maximum; inactive means score below 0.9.
Hi there, use one of these labels in your reply, thanks! yes (active), no (inactive)

- CC(CC(C)C)=NO: no

Query compound follows.
Would you mind telling me which call this test gave CCC(C)c1ccccc1 (configuration not stated) ? no

----------
# target_or_test_system: Estrogen receptor (Homo sapiens) (UniProt P03372)
# Sequence (P03372 whole entry, looked up, the tested form may be a part): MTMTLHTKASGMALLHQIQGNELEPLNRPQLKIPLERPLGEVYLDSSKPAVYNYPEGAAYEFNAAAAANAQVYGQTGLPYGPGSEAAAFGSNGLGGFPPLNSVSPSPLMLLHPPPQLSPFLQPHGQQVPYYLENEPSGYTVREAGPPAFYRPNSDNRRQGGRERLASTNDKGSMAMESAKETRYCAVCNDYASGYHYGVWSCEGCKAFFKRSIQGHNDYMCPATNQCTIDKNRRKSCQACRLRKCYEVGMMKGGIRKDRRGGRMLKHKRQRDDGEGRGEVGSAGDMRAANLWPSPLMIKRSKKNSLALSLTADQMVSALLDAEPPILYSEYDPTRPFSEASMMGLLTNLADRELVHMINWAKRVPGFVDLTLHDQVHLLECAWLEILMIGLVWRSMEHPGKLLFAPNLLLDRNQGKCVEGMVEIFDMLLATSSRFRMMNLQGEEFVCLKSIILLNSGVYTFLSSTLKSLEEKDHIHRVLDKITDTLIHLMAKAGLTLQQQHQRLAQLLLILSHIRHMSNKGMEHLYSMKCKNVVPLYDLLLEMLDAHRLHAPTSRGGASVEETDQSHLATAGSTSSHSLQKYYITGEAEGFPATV
# assay: OT_ER_ERaERa_0480: Odyssey Thera (OT) 8-hour HEK293T Protein-Complementation Assay for Estrogen Receptor-alpha/-alpha Homodimer (AID 2283351);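 further: rise in fluorescence from reassembled reporter fragments on ERα LBD homodimer in nucleus or whole cell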
Results filed as inconclusive are left out. The source made the active and inactive calls. Rule for the calls: active = hit-call score of the fitted dose curve at least 0.9, where 1 is the maximum; inconclusive = response in the unintended direction; inactive = score below 0.9.
Hi there, use one of these labels in your reply, thanks! active, inactive

Would you mind telling me which call this test gave `COC(=O)c1ccccc1C` ? inactive

Now consider CCC(C)(O)CCCC(C)C (stereo not given) and answer again. inactive

Now consider `CCCCCCCCCC(C)=O` and answer again. active

Now consider `Cc1ccc(C)c(OCCCC(C)(C)C(=O)O)c1` and answer again. inactive

Now consider `CC(C)c1ccc(O)c(C(C)C)c1` and answer again. inactive

Now consider O=C(O)CC(C(=O)O)S(=O)(=O)O (stereo not given) and answer again. inactive

Now consider CC1=CCC2CC1C2(C)C (stereo not given) and answer again. inactive

Now consider `CCCC=C(C=O)CC` and answer again. inactive

Now consider `C=C1C[C@H]2[C@@H]3C=C(C)C4=CC(=O)CC[C@]4(C)[C@H]3CC[C@]2(C)[C@@]1(OC(C)=O)C(C)=O` and answer again. inactive

Now consider `Nc1ccc(C(=O)O)cc1` and answer again. inactive
